- studySystem: T1, HLA-B*08:01 (human)
- T1 construct: MHC monomer first loaded with a UV-sensitive peptide that is cleaved by UV light and exchanged for the test peptide
- protocolNotes: UV peptide exchange ELISA
endpointName: peptide exchange yield

Use the examples below as a reference point.
DFYLRSSAF [DFYLRSSAF (SEQ ID NO: 12)] ... 50 to 75%
MRILKRFLAC [MRILKRFLAC (SEQ ID NO: 115)] ... 20 to 50%

query: Quick one: give measured peptide exchange yield for EARPPSPAV [EARPPSPAV (SEQ ID NO: 216)]
result: 20 to 50%
